test_system: human glucagon receptor (human, UniProt P47871 26-477)
test_details: cell-based or functional assay
Starred links: 1 amine or outer side, 2 acyl side, 3 side chain; linkers in the order of their positions; H or OH if unused. Non-standard residues stand in square brackets, D forms with d. No end group written: not given here. *: point of attachment. NMe2F‑APPA = N-methyl-2-amino-5-(2-fluorophenyl)pentanoic acid, CN([C@@H](CCCc1ccccc1F)C(=O)[*:2])[*:1]; AMCB = 2-amino-5-(4-chloro-2-methylphenyl)pentanoic acid, Cc1cc(Cl)ccc1CCC[C@H](N[*:1])C(=O)[*:2]; ACPP = 2-amino-5-(3-chlorophenyl)pentanoic acid, O=C([C@H](CCCc1cccc(Cl)c1)N[*:1])[*:2]; 2F,4CF3‑APPA = 2-amino-5-(2-fluoro-4-(trifluoromethyl)phenyl)pentanoic acid; 2CF3‑APPA = 2-amino-5-(2-(trifluoromethyl)phenyl)pentanoic acid; Bip(2'-Et-4'-OMe) = CCc1cc(OC)ccc1-c1ccc(C[C@H](N)C(=O)O)cc1; Leu(5,5,5,5',5',5'-F6) = N[C@@H](CC(C(F)(F)F)C(F)(F)F)C(=O)O; 2F‑APPA = 2-amino-5-(2-fluorophenyl)pentanoic acid; αMePhe(2-F) = C[C@](N)(Cc1ccccc1F)C(=O)O; NMeBip(OMe) = N-methylated Bip(OMe); hhPhe = N[C@@H](CCCc1ccccc1)C(=O)O; aThr = C[C@H](O)[C@H](N)C(=O)O; αMeP = C[C@@]1(C(=O)O)CCCN1; NMeAPPA = not defined here; CNB = not defined here; Aib = CC(C)(N)C(=O)O; Moc = COC(=O)*

# binder, inhibition of cAMP production, 10 µM / pmol/ml/µg prt
measured = [
    ("H[Aib]QGT[αMePhe(2-F)]TSD[Bip(2'-Et-4'-OMe)][AMCB] [Seq. ID. No. 40: H-Aib-QGT-(α-Me-2F-Phe)-TSD-Bip(OMe)-(AMCB)]", 6),
    ("Moc-H[Aib]QGT[αMePhe(2-F)]TSD[Bip(2'-Et-4'-OMe)][2F‑APPA] (also: thioamide bonds between residues 9-10 and 10-11) [Seq. ID. No. 172: CH3OCO-H-Aib-QGT-(α-Me-2F-Phe)-TSD-(C═S)-Bip(OMe)-(C═S)-(2F-APPA)]", 0),
    ("Moc-H[Aib][CNB]GT[αMePhe(2-F)]TSD[Bip(2'-Et-4'-OMe)][2F‑APPA] (reading uncertain) [Seq. ID. No. 208: CH3OCO-H-Aib-(CNB)-GT-(α-Me-2F-Phe)-TSD-Bip(OMe)-(2F-APPA)]", 0),
    ("H[Aib][Leu(5,5,5,5',5',5'-F6)]GT[αMePhe(2-F)][aThr]SD[Bip(2'-Et-4'-OMe)][hhPhe] [Seq. ID. No. 225: H-Aib-(Hfl)-GT-(α-Me-2F-Phe)-T(allo)-SD-Bip(OMe)-(APPA)]", 0),
    ("H[Aib][CNB]G[aThr][αMePhe(2-F)][aThr]SD[Bip(2'-Et-4'-OMe)][hhPhe] (reading uncertain; also: thioamide bond between residues 10 and 11) [Seq. ID. No. 166: H-Aib-(CNB)-G-T(allo)-(α-Me-2F-Phe)-T(allo)-SD-Bip(OMe)-(C═S)-(APPA)]", 12),
    ("H[Aib][CNB]G[aThr][αMePhe(2-F)][aThr]SD[Bip(2'-Et-4'-OMe)][NMeAPPA] (reading uncertain) [Seq. ID. No. 130: H-Aib-(CNB)-G-T(allo)-(α-Me-2F-Phe)-T(allo)-SD-Bip(OMe)-((NMe)(APPA))]", 0),
    ("H[Aib][CNB]G[aThr][αMePhe(2-F)][aThr]SD[NMeBip(OMe)][NMe2F‑APPA] (reading uncertain) [Seq. ID. No. 144: H-Aib-(CNB)-G-T(allo)-(α-Me-2F-Phe)-T(allo)-SD-((NMe)Bip(OMe))-((NMe)(2F-APPA))]", 0),
    ("H[Aib][CNB]GTFTSD[Bip(2'-Et-4'-OMe)][2CF3‑APPA] (reading uncertain) [Seq. ID. No. 79: H-Aib-(CNB)-GTFTSD-Bip(OMe)-(2CF3-APPA)]", 0),
    ("H[Aib][CNB]G[aThr][αMePhe(2-F)][aThr]SD[Bip(2'-Et-4'-OMe)][hhPhe] (reading uncertain) [Seq. ID. No. 114: H-Aib-(CNB)-G-T(allo)-(α-Me-2F-Phe)-T(allo)-SD-Bip(OMe)-(APPA)]", 0),
    ("H[Aib][CNB]G[aThr][αMePhe(2-F)][aThr]SD[Bip(2'-Et-4'-OMe)][hhPhe] (reading uncertain; also: reduced (CH2) bonds between 9-10 and 10-11) [Seq. ID. No. 202: H-Aib-(CNB)-G-T(allo)-(α-Me-2F-Phe)-T(allo)-SD-(CH2)-Bip(OMe)-(CH2)-(APPA)]", 0),
    ("H[Aib]QGTFTSD[Bip(2'-Et-4'-OMe)][2F,4CF3‑APPA] [Seq. ID. No. 65: H-Aib-QGTFTSD-Bip(OMe)-(2F,4CF3-APPA)]", 1),
    ("H-HSQGTFTSD[Bip(2'-Et-4'-OMe)][hhPhe]-NH2 [Seq. ID. No. 5: HSQGTFTSD-Bip(OMe)-(APPA)]", 0),
    ("Moc-H[Aib]QGT[αMePhe(2-F)]TSD[Bip(2'-Et-4'-OMe)][hhPhe] (also: reduced (CH2) bonds between 9-10 and 10-11) [Seq. ID. No. 194: CH3OCO-H-Aib-QGT-(α-Me-2F-Phe)-TSD-(CH2)-Bip(OMe)-(CH2)-(APPA)]", 6),
    ("H[Aib][CNB]G[aThr][αMePhe(2-F)][aThr]SD[Bip(2'-Et-4'-OMe)][2F‑APPA] (reading uncertain; also: reduced (CH2) bond between 10 and 11) [Seq. ID. No. 192: H-Aib-(CNB)-G-T(allo)-(α-Me-2F-Phe)-T(allo)-SD-Bip(OMe)-(CH2)-(2F-APPA)]", 0),
    ("H[Aib]QGTFTSD[Bip(2'-Et-4'-OMe)][ACPP] [Seq. ID. No. 19: H-Aib-QGTFTSD-Bip(OMe)-(ACPP)]", 0),
    ("H[αMeP]QGTFTSD[Bip(2'-Et-4'-OMe)][ACPP] [Seq. ID. No. 11: H-(α-Me-Pro)-QGTFTSD-Bip(OMe)-(ACPP)]", 0),
]

Value source: patent US20120021972A1
